Experiment: chemical genetic growth profiling, strain panel (AID 1159580);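 note: tested at 20 µM; growth read once vehicle control cultures reached saturation at 30 °C; 1 = growth at the plate median or of vehicle wells; lower values mean less growth of the strain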
Conditions: S. cerevisiae deletion strains, growth OD, locus YNL183C, strain NPR1
The campaign covered roughly 5,500 compounds. About 2,000 (36%) were called active. Inconclusive results (about 18%) are left out. Cut-off read from the data, not from the text of the source: active = normalized growth mostly below about 0.91 (no sharp cut-off); inconclusive = no clear call, values can overlap the other calls; inactive = mostly above about 0.92. The list shows a part of the results.
// one of Y for active, N for inactive, no free text

Answered cases to consult:
Cc1c[nH]c2ccccc12 = N
CC(C)c1nc(N(C)S(C)(=O)=O)nc(-c2ccc(F)cc2)c1/C=C/[C@@H](O)C[C@@H](O)CC(=O)O = Y
Cc1cc(/C=C/c2ccc3cc(N(C)C)ccc3[n+]2C)c(C)n1-c1ccccc1 = N

What outcome does the record of this test show for `Cc1c(S(=O)(=O)Nc2cccc([N+](=O)[O-])c2)sc2ccc(Cl)cc12` ?
N

How about this molecule: `COc1cc(NS(C)(=O)=O)ccc1Cc1c2ccccc2nc2ccccc12`
N

Another: `C[C@@H](Nc1ncnc2sc3c(c12)CCCC3)c1ccccc1`
N

And for `Cc1ccccc1/C=C/c1c[nH]c2ccccc12` ?
N

Note, next up: `CC1=CC(=O)N(c2ccc(OC(F)(F)F)cc2)C1=O`
Y

Continue with CC(=O)C1CCC2C3CCC4C[C@H](O)CCC4(C)C3C[C@H](O)C12C (some centres not stated)
N

Moving on to CC(=O)C1CC[C@H]2C3CC[C@H]4C[C@H](O)CC[C@]4(C)C3CC[C@]12C (some centres not stated)
N

What do you have for `C=C1C(=O)[C@]23[C@H](O)[C@H]1CC[C@H]2[C@@]12CO[C@]3(O)[C@H](O)[C@@H]1C(C)(C)CC[C@@H]2O` ?
N

Item: `CN(C)c1ccc(/C=C/c2ccc3ccccc3[n+]2C)cc1`
N

###

Test: chemical genetic growth profiling, strain panel (AID 1159580);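 note: tested at 20 µM; growth read once vehicle control cultures reached saturation at 30 °C; 1 = growth at the plate median or of vehicle wells; lower values mean less growth of the strain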
Details: S. cerevisiae deletion strains, growth OD, locus YJL187C, strain SWE1, active compounds read low
In all, about 5,500 compounds went through this assay and about 2,000 (36%) were called active. About 18% were inconclusive and are not listed. Some of the results follow.
MEASURED METRIC: normalized growth
Enter the number alone.

CC1[C@H](C)OC(=O)CC(O)CC(O)CC(O)CCC(O)C(O)C[C@]2(O)CC(O)C(C(=O)O)C(CC(OC3O[C@H](C)[C@@H](O)[C@H](N)[C@@H]3O)/C=C/C=C/C=C/C=C/CC/C=C/C=C/[C@H](C)[C@H]1O)O2 (some centres not stated) = 0.846

Give its normalized growth value. Item: COc1ccc(CCC(=O)c2c(O)cc(O[C@@H]3O[C@H](CO)C(O)[C@H](O)C3O[C@@H]3O[C@@H](C)[C@H](O)[C@@H](O)[C@H]3O)cc2O)cc1O (some centres not stated)
1.04

Request: CCN1C[C@@]2(COC)C3[C@@H](OC)[C@H]4[C@@H]1[C@]3(C(OC)C[C@H]2O)C1C[C@@]2(O)[C@H](OC(=O)c3ccccc3)C1[C@]4(OC(C)=O)[C@@H](O)[C@@H]2OC (some centres not stated)
1.03

Field entry: `COC(=O)c1cscc1Sc1ccc(Cl)cc1`
0.995

What about this compound? `CC(O)(P(=O)(O)O)P(=O)(O)O`
1

Same again, this time with NCC[C@@H](O)C(=O)N[C@@H]1C[C@H](N)[C@@H](O[C@H]2O[C@H](CN)[C@@H](O)[C@H](O)[C@H]2O)[C@H](O)[C@H]1O[C@H]1O[C@H](CO)[C@@H](O)[C@H](N)C1O (some centres not stated)
1.03

And then `C=C1C(=O)[C@]23[C@H](O)[C@H]1CC[C@H]2[C@@]12CO[C@]3(O)[C@H](O)[C@@H]1C(C)(C)CC[C@@H]2O` , what is it?
1.02
